# tgt: T1, RSV prefusion F (preF), subtype B (respiratory syncytial virus subtype B)
# T1 construct: also called Prefusion subtype B
# protocol-text: BLI, IgG
experimental-endpoint: Kd (nM)
Answers are plain numbers, in nM.

{"binder": "ADI-22757 (antibody, V domains shown, full-length IgG) VH: EVQLLESGAEVKKPGASVKVSCKASGYTFSNYGISWVRQAPGQGLEWMGWISVYNGNTEYAQKFQGRLTMTTDTSTSTAYMELRSLRSDDTAVYYCARDPPAVAASFMDVWGQGTTVTVSS VL: EIVLTQSPLSLPVTLGQPASISCRSSQSLVHSEGNTYLSWFQQRPGQSPRRLIYKVSNRDSGVPDRFSGSGSGTDFTLKISRVEAEDVGLYFCMQGTHWPPTFGGGTKVEIK", "Kd (nM)": 0.538}

Hello, I would appreciate it if you could give Kd for each entry below.
1. ADI-14339 (antibody, V domains shown, full-length IgG; also called Ab 7) VH: QVQLVESGGGVLQPGRSLRLPCEASGFTFNKYAMHWVRQAPGKGLEWVAAVSYDGGNKFYAESVKGRFTISRDNSKNTLYLQMNSLKPEDTAVYYCARDRWELLHGLDYWGLGTLVTVSS VL: SYELTQPPSVSVSPGQTARITCSGEALAKQYAYWYQQKPGQAPVLVIYKDNERPSGISERFSGSSSGTTVTLTISGVQAEDEADYYCQSADSSGTYVFGTGTKVTVL
2. ADI-24815 (antibody, V domains shown, full-length IgG) VH: EVQLVESGGGLVKPGGSLRLSCAASGFTFSSYSMNWVRQAPGKGLEWVSSISSSSSYIYYADSVKGRFTISRDNAKNSLYLQMNSLRAEDTAVYYCAREGYSSSSGYYYMDVWGKGTTVTVSS VL: QSVLTQPPSVSGAPGQRVTISCTGSSSNIGAGYDVHWYQQLPGTAPKLLIYGNSNRPSGVPDRFSGSKSGTSASLAITGLQAEDEADYYCQSYDSSLSGSVFGTGTKVTVL

a:
[1.77, 29.1]
